- assay.explanation: in vitro; also: reference of the scale not given here
- experimental.parameters: human, HepG2-A16-CD81EGFP cells, uninfected
observation.type: viability at 48 h, 1 µM (%)

| compound | quantitative.readout |
| --- | --- |
| CCN1CCN(Cc2ccc(NC(=O)c3ccc(C)c(NC(=O)c4cnc5cc(C(F)(F)F)ccc5c4O)c3)cc2C(F)(F)F)CC1 | 107 |
| CC(C)(C)N1C(=O)c2ccc(C(=O)Nc3ccc(-c4nc5ccccc5[nH]4)cc3)cc2C1=O | 94 |
| CCCOc1ccc(CCc2nnc(S)n2Cc2ccccc2)cc1 | 122 |
| CCOC(=O)CC(=O)CSc1nc2ccccc2c(=O)n1-c1ccc(C(=O)N2CCOCC2)cc1 | 87 |
| CCc1ccc(C2Sc3ccccc3N=C3C2=C(O)c2ccccc23)cc1 (stereo not shown) | 103 |
| c1ccc(-c2nc(N3CCCCCC3)c3ccccc3n2)nc1 | 102 |
| N=c1c2ccccc2nnn1-c1ccc(C(F)(F)F)cc1 | 91 |
| CCc1cccc(-n2c(=O)c3cccnc3n2CC(=O)NCc2ccccc2)c1 | 105 |
| COc1cc2nc(Nc3ccc(C)c(Cl)c3)nc(N)c2cc1OC | 109 |
| CCCn1c(SCC(=O)Nc2cc(Cl)ccc2Cl)n[nH]c1=O | 97 |
| Cc1ccc(-n2nc3c(Cl)nnc(C)c3c2C)cc1 | 105 |
| COc1ccccc1NC(=O)Cn1cccc1-c1nc(-c2ccc(F)cc2)no1 | 107 |
| c1cc(Nc2ncnc3sc4c(c23)CCC4)ccn1 | 103 |
| CCOC(=O)N1CCc2c(sc3nc4n(c(=O)c23)N=C(c2ccc(OC)cc2)CS4)C1 | 99 |
| CCCCOc1ccc(C(=O)N/C(=C\c2cccc([N+](=O)[O-])c2)C(=O)OC(C)C)cc1 | 101 |
| CC(C)CN(Cc1cc(=O)oc2cc(-c3ccccc3)c(O)cc12)CC(C)C | 98 |

====

- assay.explanation: in vitro
- experimental.parameters: human, HepG2-A16-CD81EGFP cells, uninfected

| molecule | viability at 48 h, 1 µM (%) |
| --- | --- |
| COc1ccc(-n2nc(C)c([C@@H]3C=C[C@@H](NCc4cccc(Cl)c4)C3)c2C)cc1 | 104 |
| CCN1CCC(Nc2ccnc3cc(Cl)ccc23)CC1 | 99 |
| Cc1nccn1CC(O)Cn1c2ccccc2c2ccccc21 (stereo not drawn) | 103 |

====

Reported viability at 48 h, 1 µM values for the following compounds.
- assay.explanation: in vitro
- experimental.parameters: human, HepG2-A16-CD81EGFP cells, uninfected
observation.type: viability at 48 h, 1 µM (%)

| compound | quantitative.readout |
| --- | --- |
| CCCN(CCC)CCCNc1ccc(C(=O)Nc2cccc(OC)c2)cc1[N+](=O)[O-] [MLS000689411-01] | 106 |
| CCOc1cc(C(=O)N2CCC(CC3CC(c4cccc(Br)c4)=NO3)(C(=O)NCC3CCCCC3)CC2)cc(OCC)c1OCC (stereo not shown) [MLS001074456-01] | 106 |
| COc1cccc(Cn2c(Oc3ccccc3)nc3c2c(=O)n(C)c(=O)n3C)c1 [MLS000038011-01] | 107 |
| O=C(Nc1nc(-c2ccccn2)cs1)Nc1ccc(F)cc1F [MLS001175659-01] | 94 |
| CCCCn1c2c(c(=N)c3c1CCC3)CCC2 [MLS000080126-01] | 111 |
| COc1ccc(-c2noc(-c3cccn3CC(=O)Nc3cccc(Cl)c3C)n2)cc1F [NCGC00445510-01] | 104 |
| CN(C)CCCn1cnc2c(c1=N)C(c1ccccc1)c1ccc3ccccc3c1O2 (stereo not shown) [MLS001216375-01] | 111 |
| CC1CCCN(Cc2c(O)ccc3c(=O)c(-c4ccc(Cl)cc4)coc23)C1 (stereo not shown) [MLS001196099-01] | 113 |
| CCOC(=O)c1cnc2ccc(OC)cc2c1Nc1ccc(N2CCN(C)CC2)cc1 [MLS001164177-01] | 98 |
| CCCc1cc(=O)oc2cc(C)cc(OCC(=O)Nc3cccnc3)c12 [MLS001160340-01] | 106 |
| CCn1cc(C(=O)O)c(=O)c2cnc(N3CCN(/C(S)=N/c4ccccc4)CC3)nc21 [MLS000777921-01] | 113 |
| Cc1cccnc1Nc1nc(-c2ccccn2)cs1 [MLS000528306-01] | 57 |
| Cn1nc(C(=O)NCC(=O)N2CCCCCCNC(=O)CC2c2ccccc2)c2ccccc21 (stereo not shown) [NCGC00467428-01] | 108 |
